Task for the reader: assign each of the following compounds its reported pIC50.
Tested on: L6
Assay: Cytotoxicity against rat L6 cells after 72 hrs by Alamar Blue assay
Assay type: cell-based
Conditions: L6, 72 h
pIC50 (log units): -log10 of the concentration in mol/L.

Q. Determine its reported pIC50: "Cl.Cl.N=C(N)c1ccc(-c2cccc(-c3ccc(C(=N)N)nc3)c2)cn1"
A. 4.65

Q. Please report the measured pIC50 for "CN(C)CC(=O)O/N=C(\N)c1ccc(-c2cccc(-c3ccc(/C(N)=N\OC(=O)CN(C)C)cn3)c2)nc1"
A. 4.20

Q. Entry "N=C(Nc1ccc(-c2cc(Cl)cc(-c3cccc(NC(=N)c4ccccc4)c3)c2)cc1)c1ccccc1" needs its pIC50 filled in; supply it.
A. 5.64

Q. Determine from records and report pIC50 for "CC(C)Oc1ccc(NC(=N)c2ccccn2)cc1-c1cc(Cl)cc(-c2ccccc2)c1"
A. 5.42

Q. Determine its reported pIC50: "CC(C)Oc1cc(NC(=N)c2ccccn2)ccc1-c1cc(Cl)cc(-c2ccccc2)c1"
A. 5.01

Q. Give reported pIC50 value for "CC1(C)CN=C(c2ccc(-c3cccc(-c4ccc(C5=NCC(C)(C)CN5)cc4)c3)cc2)NC1"
A. 3.91

---

Tested on: Trypanosoma cruzi
Test: Antiprotozoal activity against intracellular amastigote form of Trypanosoma cruzi Tulahuen C2C4 expressing LacZ infected in rat L6 cells after 48 hrs
Type: functional, organism-based
Conditions: Tulahuen C2C4, L6, 48 h
measured.parameter: log10 of IC50 (log10 of the value in µM)
Hey, these are logged values: log10 of IC50, µM being the unit before logging.

Q. Entry "Cl.Cl.N=C(N)c1ccc(-c2cccc(-c3cccc(C(=N)N)c3)c2)cc1" needs its log10 of IC50 filled in; supply it.
A. 1.43

Q. Please supply the value of reported log10 of IC50 for the item "CO/N=C(\N)c1ccc(-c2cccc(-c3ccc(/C(N)=N\OC)cn3)c2)nc1.Cl"
A. 2.07

Q. Write down log10 of IC50 measured for item "Cl.Cl.N=C(N)c1ccc(-c2cc(N)cc(-c3ccc(C(=N)N)cc3)c2)cc1"
A. 2.17

Q. Recall and state the measured log10 of IC50 for "N=C(N)c1ccc(-c2cc(Cl)cc(-c3cccc(C(=N)N)c3)c2)cc1" .
A. 1.67

Q. Identify the reported log10 of IC50 for the following entry. "CO/N=C(\N)c1cccc(-c2cccc(-c3cccc(/C(N)=N\OC)c3)c2)c1.Cl.Cl"
A. 1.38

Q. Give the reported value of log10 of IC50 for this record: "CC(C)NC(=N)c1cccc(-c2cccc(-c3cccc(C(=N)NC(C)C)c3)c2)c1"
A. 2.15

Q. Return log10 of IC50 (reported value) for this compound: "Cl.Cl.Cl.N=C(Nc1ccc(-c2cc(Cl)cc(-c3cccc(NC(=N)c4ccccn4)c3)c2)cc1)c1ccccn1"
A. 0.19

Q. For "CC1(C)CN=C(c2cccc(-c3cccc(-c4cccc(C5=NCC(C)(C)CN5)c4)c3)c2)NC1" , write its log10 of IC50.
A. 1.66

Q. # return recorded log10 of IC50 for entry "CO/N=C(/N)c1ccc(-c2cccc(-c3ccc(/C(N)=N\OC)cc3)c2)cc1.Cl.Cl"
A. 1.97

Q. Provide only the value of recorded log10 of IC50 for "Cl.Cl.N=C(N)c1ccc(-c2cc(-c3ccc(C(=N)N)cc3)cc([N+](=O)[O-])c2)cc1"
A. 1.76

Q. Note log10 of IC50 for the compound shown: "N=C(Nc1ccc(-c2cc(Cl)cc(-c3cccc(NC(=N)c4ccccc4)c3)c2)cc1)c1ccccc1"
A. 0.31

Q. Recall and state the measured log10 of IC50 for "Cl.Cl.N=C(Nc1ccc(-c2cccc(-c3cccc(NC(=N)c4ccccn4)c3)c2)cc1)c1ccccn1" .
A. -0.41

Q. Provide only the value of recorded log10 of IC50 for "Cl.Cl.Cl.N=C(N)c1ccc(-c2cc(Cl)cc(-c3ccc(C(=N)N)cc3)c2)cc1"
A. 1.82

Q. Annotate the compound "COc1cc(-c2cccc(C(=N)N)c2)cc(-c2cccc(C(=N)N)c2)c1.Cl.Cl" with its measured log10 of IC50.
A. 1.75

Q. Quote log10 of IC50 reported for "N=C(N)c1cccc(-c2cc(Cl)cc(-c3cccc(C(=N)N)c3)c2)c1" please.
A. 1.70

Q. Read off the recorded log10 of IC50 for "N=C(Nc1ccc(-c2cccc(-c3cccc(NC(=N)c4ccccc4)c3)c2)cc1)c1ccccc1"
A. 0.33

Q. Report log10 of IC50, nothing else, for this compound: "Cl.Cl.N=C(N)c1ccc(-c2cccc(-c3ccc(C(=N)N)cc3)c2)cc1"
A. 1.85

Q. Provide measured log10 of IC50 value, entry: "Cl.Cl.N=C(N)c1ccc(-c2cccc(-c3ccc(C(=N)N)nc3)c2)cn1"
A. 1.64

Q. Indicate its recorded log10 of IC50; the compound in question is "N=C(Nc1cccc(-c2cc(Cl)cc(-c3cccc(NC(=N)c4ccccc4)c3)c2)c1)c1ccccc1"
A. 0.32

Q. Specify reported log10 of IC50 for the compound shown: "Cl.Cl.c1cc(-c2ccc(C3=NCCN3)cc2)cc(-c2ccc(C3=NCCN3)cc2)c1"
A. 1.28

Q. Please indicate log10 of IC50 recorded for "c1cc(C2=NCCN2)cc(-c2cccc(-c3cccc(C4=NCCN4)c3)c2)c1"
A. 1.31

Q. Give the measured log10 of IC50 for "Cl.Cl.N/C(=N\O)c1cccc(-c2cccc(-c3cccc(/C(N)=N\O)c3)c2)c1"
A. 1.05

Q. Output log10 of IC50 of "COc1cc(-c2ccc(C(=N)N)cc2)cc(-c2ccc(C(=N)N)cc2)c1.Cl.Cl"
A. 1.77

Q. Please list log10 of IC50 recorded for the compound "Cl.Cl.Cl.N=C(Nc1cccc(-c2cc(Cl)cc(-c3cccc(NC(=N)c4ccccn4)c3)c2)c1)c1ccccn1"
A. -1.28

Q. Annotate the compound "Cl.Cl.N=C(N)c1cccc(-c2cccc(-c3cccc(C(=N)N)c3)c2)c1" with its measured log10 of IC50.
A. 1.54

Q. Name the recorded log10 of IC50 of the item "CC(C)Oc1cc(NC(=N)c2ccccn2)ccc1-c1cc(Cl)cc(-c2ccccc2)c1" in your answer.
A. 0.62

Q. Kindly indicate its recorded log10 of IC50. Item: "CC1(C)CN=C(c2ccc(-c3cccc(-c4ccc(C5=NCC(C)(C)CN5)cc4)c3)cc2)NC1"
A. 2.18

Q. Could you please provide reported log10 of IC50 for "N=C(N)c1ccc(-c2ccc(-c3ccc(C(=N)N)cc3)o2)cc1" ? Thanks!
A. 1.37

Q. // fetch log10 of IC50 given entry "CN(C)CC(=O)O/N=C(\N)c1ccc(-c2cccc(-c3ccc(/C(N)=N\OC(=O)CN(C)C)cn3)c2)nc1"
A. 1.86

Q. Name the recorded log10 of IC50 of the item "O=C(Cn1ccnc1[N+](=O)[O-])NCc1ccccc1" in your answer.
A. 0.11

Q. Read off the recorded log10 of IC50 for "CC(C)Oc1ccc(NC(=N)c2ccccn2)cc1-c1cc(Cl)cc(-c2ccccc2)c1"
A. 0.47

---

Tested on: Plasmodium falciparum
Test: Antiprotozoal activity against chloroquine-resistant Plasmodium falciparum K1 after 48 hrs by [3H]-hypoxanthine incorporation assay
Type: functional, organism-based
Conditions: Plasmodium falciparum, K1
measured.parameter: pIC50
Just so you know, pIC50 here is -log10 of the concentration in molar units; reply with that number alone.

Q. Report value: pIC50, system: Plasmodium falciparum, compound: "CN(C)CC(=O)O/N=C(\N)c1ccc(-c2cccc(-c3ccc(/C(N)=N\OC(=O)CN(C)C)cn3)c2)nc1"
A. 6.31

Q. Return reported pIC50 for target or system Plasmodium falciparum, item "CO/N=C(\N)c1ccc(-c2cccc(-c3ccc(/C(N)=N\OC)cn3)c2)nc1.Cl" .
A. 5.45

Q. Look up and report measured pIC50 (Plasmodium falciparum) for the following compound: "CO/N=C(\N)c1cccc(-c2cccc(-c3cccc(/C(N)=N\OC)c3)c2)c1.Cl.Cl"
A. 5.03

Q. Please indicate recorded pIC50 of "COc1cc(-c2cccc(C(=N)N)c2)cc(-c2cccc(C(=N)N)c2)c1.Cl.Cl" measured with Plasmodium falciparum.
A. 7.55

Q. Fetch value of pIC50 on Plasmodium falciparum for "CC1(C)CN=C(c2ccc(-c3cc(-c4ccc(C5=NCC(C)(C)CN5)cc4)cc([N+](=O)[O-])c3)cc2)NC1" .
A. 8.52

Q. # lookup: Plasmodium falciparum pIC50, key = "CC(=O)O.N=C(N)c1ccc(-c2cccc(-c3ccc(C(=N)N)cn3)c2)nc1"
A. 7.35

Q. Tell me its pIC50 on Plasmodium falciparum: "N=C(N)c1ccnc(-c2cccc(-c3cc(C(=N)N)ccn3)c2)c1"
A. 7.11

Q. System Plasmodium falciparum. Read-out pIC50. Item "c1cc(C2=NCCN2)cc(-c2cccc(-c3cccc(C4=NCCN4)c3)c2)c1" . Report value.
A. 6.21

Q. Send back Plasmodium falciparum pIC50 of N=C(N)c1ccc(-c2ccc(-c3ccc(C(=N)N)cc3)o2)cc1 [FURAMIDINE] only.
A. 7.85

Q. Check Plasmodium falciparum data and give pIC50 for "N=C(N)c1ccc(-c2cc(Cl)cc(-c3cccc(C(=N)N)c3)c2)cc1" .
A. 8.00

Q. Identify measured pIC50 obtained with Plasmodium falciparum for "Cl.Cl.Cl.N=C(Nc1cccc(-c2cc(Cl)cc(-c3cccc(NC(=N)c4ccccn4)c3)c2)c1)c1ccccn1" .
A. 8.22

Q. Recall the reported pIC50 of "Cl.Cl.N=C(N)c1ccc(-c2cc(-c3ccc(C(=N)N)cc3)cc([N+](=O)[O-])c2)cc1" when tested on Plasmodium falciparum.
A. 7.74

Q. Consider the compound "CC(C)Oc1ccc(NC(=N)c2ccccn2)cc1-c1cc(Cl)cc(-c2ccccc2)c1" tested on Plasmodium falciparum; state its pIC50.
A. 5.51

Q. // fetch pIC50 for "N=C(Nc1ccc(-c2cccc(-c3cccc(NC(=N)c4ccccc4)c3)c2)cc1)c1ccccc1" ; system: Plasmodium falciparum
A. 7.42

Q. State, for Plasmodium falciparum, measured pIC50 of the compound listed here: "CC(C)NC(=N)c1cccc(-c2cccc(-c3cccc(C(=N)NC(C)C)c3)c2)c1"
A. 7.51

Q. State pIC50 (Plasmodium falciparum) of "Cl.Cl.Cl.N=C(Nc1ccc(-c2cc(Cl)cc(-c3cccc(NC(=N)c4ccccn4)c3)c2)cc1)c1ccccn1" .
A. 6.66

Q. Fill in: pIC50 on Plasmodium falciparum, entry "Cl.Cl.N/C(=N\O)c1cccc(-c2cccc(-c3cccc(/C(N)=N\O)c3)c2)c1"
A. 5.08
